Exercise: state measured Kd for each of the binders provided.
Target: T1, Monomeric monkey CD48-mmH (monkey)
T1 construct: Soluble monkey CD48 with a myc-myc-hexa-histidine C-terminal tag; the whole entry is the construct; also called mfCD48-mmH
T1 chain: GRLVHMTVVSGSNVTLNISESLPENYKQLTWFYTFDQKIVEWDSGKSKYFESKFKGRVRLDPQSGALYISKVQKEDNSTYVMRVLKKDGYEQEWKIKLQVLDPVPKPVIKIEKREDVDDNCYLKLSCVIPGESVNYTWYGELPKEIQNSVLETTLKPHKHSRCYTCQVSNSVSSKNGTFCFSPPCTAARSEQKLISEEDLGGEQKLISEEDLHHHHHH
Assay: SPR (Biacore), antibody captured by anti-Fc, CD48 in solution, 25 C

Give the measured Kd of H4H1781P (antibody, human IgG4, V domains shown, Human IgG4 Fc (H4H)) VH: QVQLVESGGGVVQPGRSLRLSCAASGFTFSNYGMHWVRQAPGKGLEWVAVIWYDDSNKNYADSVKGRFTISRDNSKNTLYLQMNSLRVEDTAVYYCARDRWTYSHFFEYWGQGTLVTVSS VL: DIQMTQSPSSVSASVGDRVTITCRASQGISSWLAWYQQKPGKAPNLLIYAASSLQSGVPSRFGGSGSGTDFSLTISGLQPEDFATYYCQQANSFPRTFGQGTKVEIK . 0.262 nM

// lookup Kd for H4H1778P (antibody, human IgG4, V domains shown, Human IgG4 Fc (H4H)) VH: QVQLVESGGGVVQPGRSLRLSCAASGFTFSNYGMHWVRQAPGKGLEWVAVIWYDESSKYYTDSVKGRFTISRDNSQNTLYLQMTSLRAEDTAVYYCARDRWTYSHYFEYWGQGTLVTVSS VL: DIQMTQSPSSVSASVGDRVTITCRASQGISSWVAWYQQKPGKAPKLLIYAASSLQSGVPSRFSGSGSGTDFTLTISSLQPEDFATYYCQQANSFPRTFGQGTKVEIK 0.325 nM

Item under review: H4H1779P (antibody, human IgG4, V domains shown, Human IgG4 Fc (H4H)) VH: QVQLVESGGGVVQPGRSLRLSCAASGFTFSNYGMHWVRQAPGKGLEWVAVIWYDESSKHYADSVKGRFTISRDNSQNTLYLQMTSLRAEDTAVYYCARDRWTYSHYFEYWGQGTLVTVSS VL: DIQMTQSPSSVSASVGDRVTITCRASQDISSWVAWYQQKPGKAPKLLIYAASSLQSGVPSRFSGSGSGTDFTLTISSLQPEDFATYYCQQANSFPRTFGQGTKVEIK . Reported Kd? 0.375 nM

I am curious: what Kd value has been reported for H4H1713N (antibody, V domains shown, Human IgG4 Fc (H4H)) VH: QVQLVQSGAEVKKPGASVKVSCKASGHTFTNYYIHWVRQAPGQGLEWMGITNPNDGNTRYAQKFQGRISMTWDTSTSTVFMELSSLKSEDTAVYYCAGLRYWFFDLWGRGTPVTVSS VL: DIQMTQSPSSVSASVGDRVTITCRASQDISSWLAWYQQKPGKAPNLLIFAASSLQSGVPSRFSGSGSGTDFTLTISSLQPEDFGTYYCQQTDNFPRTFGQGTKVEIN ? 0.843 nM
